Entries and their measured %Inh follow.
# Test system: PAK2;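 further: KINOMEscan kinase panel screen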
# condition: concentration: 1 μM, replicates: in singlicate; n = 1

[
  {
    "compound": "Cc1c(O)cccc1Nc1ccnc2ccc(C(F)(F)F)cc12.Cl [GW466413]",
    "unit descriptor": "%",
    "%Inh": 0
  },
  {
    "compound": "CCn1c(-c2cccnc2O)nc2cnccc21 [SB-736715]",
    "unit descriptor": "%",
    "%Inh": 0
  },
  {
    "compound": "COC(=O)c1c(-c2ccccc2)c2cc(C(=O)O)ccc2c(=O)n1Cc1ccccc1",
    "unit descriptor": "%",
    "%Inh": 22
  },
  {
    "compound": "COc1cc2nccc(Nc3ccc(NC(=O)c4ccc(C)cc4)c(O)c3)c2cc1OC.Cl [GW440132]",
    "unit descriptor": "%",
    "%Inh": 0
  },
  {
    "compound": "Nc1nc(-c2nccs2)c(-c2ccnc3ccccc23)s1 [GW693542]",
    "unit descriptor": "%",
    "%Inh": 1
  },
  {
    "compound": "COc1cc2ncnc(Nc3ccc4nc(-c5ccccc5)[nH]c4c3)c2cc1OC.Cl [GW282450]",
    "unit descriptor": "%",
    "%Inh": 9
  }
]
